C175 overview
Species: Cavia porcellus
Test: Concentration needed to elicit a 75% increase beyond control in coronary flow in ''Langendorff'', guinea pig heart (in vitro)
Assay type: functional
Please respond with the number in µM and leave the unit unwritten.

Solved cases (5 shown):
COc1ccc(C#Cc2ccccc2)c(CC(C)N(C)CCc2ccccc2)c1 (configuration not stated) = 0.5
COc1cc(CCN(C)C(C)CCc2cc(OC)ccc2C#Cc2ccccc2)cc(OC)c1 (configuration not stated) = 0.095
COc1ccc(C#Cc2ccccc2)c(CC(C)N(C)CCc2cccc(Cl)c2Cl)c1 (configuration not stated) = 0.015
COc1ccc(C#Cc2ccc(C#N)cc2)c(CC(C)N(C)CCc2ccc(OC)c(OC)c2)c1 (configuration not stated) = 0.45
COc1ccc(C#Cc2ccccc2)c(CC(C)N(C)CCc2cccc3ccccc23)c1 (configuration not stated) = 0.19

Tell me C175 reported for COc1ccc(C#Cc2ccc(F)cc2)c(CC(C)N(C)CCc2ccc(OC)c(OC)c2)c1 (configuration not stated) 0.0013

Tell me C175 reported for COc1ccc(C#Cc2ccccc2)c(CC(C)N(C)Cc2ccc(OC)c(OC)c2)c1 (configuration not stated) 3

Tell me C175 reported for COc1cccc(CCN(C)C(C)Cc2cc(OC)ccc2C#Cc2ccccc2)c1 (configuration not stated) 0.0035

Tell me C175 reported for COc1ccc([C@@H]2Sc3ccccc3N(CCN(C)C)C(=O)[C@@H]2OC(C)=O)cc1 [DILTIAZEM] 0.18
